B1: library; a variant is named by its letters at N, in order (parent)
chain: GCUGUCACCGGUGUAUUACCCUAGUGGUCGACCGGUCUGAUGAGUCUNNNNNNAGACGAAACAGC

- Variants of: B1
- measurement notes: normalized RNA/DNA level without ligand (relative to sTRSVctl = 100) (log10 (% of sTRSVctl)); ligand: hypoxanthine (xanthine aptamer); higher = less ribozyme self-cleavage, higher mRNA level
- run conditions: HEK293T, reporter: mCherry (pCS4076), ligand present: no
// reported normalized RNA/DNA level without ligand (log10) per item
endpoint: normalized RNA/DNA level without ligand (log10)

biopolymer sequence	number
GCUGUCACCGGUGUAUUACCCUAGUGGUCGACCGGUCUGAUGAGUCUUGGAUCAGACGAAACAGC [UGGAUC]	1.95
GCUGUCACCGGUGUAUUACCCUAGUGGUCGACCGGUCUGAUGAGUCUUUGGGGAGACGAAACAGC [UUGGGG]	1.82
GCUGUCACCGGUGUAUUACCCUAGUGGUCGACCGGUCUGAUGAGUCUCCAAACAGACGAAACAGC [CCAAAC]	1.87
GCUGUCACCGGUGUAUUACCCUAGUGGUCGACCGGUCUGAUGAGUCUGGGAUCAGACGAAACAGC [GGGAUC]	1.86
GCUGUCACCGGUGUAUUACCCUAGUGGUCGACCGGUCUGAUGAGUCUUUACCGAGACGAAACAGC [UUACCG]	1.75
GCUGUCACCGGUGUAUUACCCUAGUGGUCGACCGGUCUGAUGAGUCUUCAACGAGACGAAACAGC [UCAACG]	1.78
GCUGUCACCGGUGUAUUACCCUAGUGGUCGACCGGUCUGAUGAGUCUAGGCUGAGACGAAACAGC [AGGCUG]	1.78
GCUGUCACCGGUGUAUUACCCUAGUGGUCGACCGGUCUGAUGAGUCUUACGAGAGACGAAACAGC [UACGAG]	1.4
GCUGUCACCGGUGUAUUACCCUAGUGGUCGACCGGUCUGAUGAGUCUUGCGCUAGACGAAACAGC [UGCGCU]	1.93
GCUGUCACCGGUGUAUUACCCUAGUGGUCGACCGGUCUGAUGAGUCUCAUACGAGACGAAACAGC [CAUACG]	1.88
GCUGUCACCGGUGUAUUACCCUAGUGGUCGACCGGUCUGAUGAGUCUCCGGACAGACGAAACAGC [CCGGAC]	1.79
